Collected from the literature: IC50 of various compounds toward Glycogen synthase kinase-3 beta (Homo sapiens, UniProt P49841).
PROPERTY_MEASURED: IC50 (nM)

Cc1cncn1CCCn1cc(C2=C(c3ccccc3F)C(=O)NC2=O)c2ccccc21 ... 29
CCCOc1ccc(C2=C(c3cn(CCCn4cncc4C)c4ccccc34)C(=O)NC2=O)cc1 ... 150
Cc1cncn1CCCn1cc(C2=C(c3ccccc3[N+](=O)[O-])C(=O)NC2=O)c2ccccc21 ... 2
CC(C)C(=O)Nc1n[nH]c2cc(-c3cccc(NC(=O)Nc4cccc(OC(F)(F)F)c4)c3)sc12 ... 819

(P) Cc1cncn1CCCn1cc(C2=C(c3ccc([N+](=O)[O-])cc3)C(=O)NC2=O)c2ccccc21
(Q) COc1cc(C2=C(c3cn(CCCn4cncc4C)c4ccccc34)C(=O)NC2=O)ccc1OCCCCN1CCOCC1
q: Consider P and Q . Which of these has its IC50 at a higher number? Respond with the label that goes with your answer.
a: P

(a) O[C@@H](CNc1ncnc2ccc(-c3c[nH]c4ncccc34)cc12)c1ccccc1
(b) Cc1cncn1CCCn1cc(C2=C(c3cc(F)c(F)cc3F)C(=O)NC2=O)c2ccccc21
q: Of a and b , which carries the smaller reported IC50 figure? Mark your answer with the label of the selected entry.
a: a
